Target: T1, MBP-Hhp1ΔC (Hhp1 amino acids 1 to 296) (S. pombe, UniProt P40235 1-296)
T1 construct: Hhp1, CK1 enzyme of Schizosaccharomyces pombe, C-terminally truncated, amino acids 1-296; cDNA cloned into pMAL-C2; also called Hhp1-delC; Hhp1 kinase domain; source: E. coli Rosetta2(DE3)pLysS, purified (amylose beads, eluted with maltose)
T1 sequence (looked up): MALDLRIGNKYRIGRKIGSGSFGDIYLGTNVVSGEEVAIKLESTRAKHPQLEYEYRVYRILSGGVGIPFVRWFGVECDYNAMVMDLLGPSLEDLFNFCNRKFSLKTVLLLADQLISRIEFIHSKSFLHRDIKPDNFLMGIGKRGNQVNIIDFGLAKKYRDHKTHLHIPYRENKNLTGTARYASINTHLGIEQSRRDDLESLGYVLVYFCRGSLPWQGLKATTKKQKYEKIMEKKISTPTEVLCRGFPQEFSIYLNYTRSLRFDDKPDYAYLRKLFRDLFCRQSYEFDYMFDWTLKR
Test: pull-down; competitive equilibrium binding assay: as the equilibrium binding assay on peptide beads, with 25 μM substrate (casein or Rec11) added along with the kinase; fit constrained to Bmax = 1 for the apparent Kd; Ki from Kd(app)=Kd(1+[I]/Ki)
Conditions: both partners purified
measure.name: pKi
Quick note: pKi means taking -log10 of the concentration in moles per liter.

query: Recorded pKi for MRFEFESDASSHLNEVLTELESVELENVEYEGP (domain or fragment, UniProt Q92380 1-33, looked up, Rec11, physiological Hhp1 substrate involved in meiosis, N terminus, amino acids 1-33; source: expressed and purified as previously described (16)) [GST-Rec11-N3 (N terminus of Rec11, amino acids 1-33)] , please?
result: 4.49
